Multiple publications report pIC50 for UniProtKB P12822; what follows is a combined list.
Sequence (P12822 whole entry): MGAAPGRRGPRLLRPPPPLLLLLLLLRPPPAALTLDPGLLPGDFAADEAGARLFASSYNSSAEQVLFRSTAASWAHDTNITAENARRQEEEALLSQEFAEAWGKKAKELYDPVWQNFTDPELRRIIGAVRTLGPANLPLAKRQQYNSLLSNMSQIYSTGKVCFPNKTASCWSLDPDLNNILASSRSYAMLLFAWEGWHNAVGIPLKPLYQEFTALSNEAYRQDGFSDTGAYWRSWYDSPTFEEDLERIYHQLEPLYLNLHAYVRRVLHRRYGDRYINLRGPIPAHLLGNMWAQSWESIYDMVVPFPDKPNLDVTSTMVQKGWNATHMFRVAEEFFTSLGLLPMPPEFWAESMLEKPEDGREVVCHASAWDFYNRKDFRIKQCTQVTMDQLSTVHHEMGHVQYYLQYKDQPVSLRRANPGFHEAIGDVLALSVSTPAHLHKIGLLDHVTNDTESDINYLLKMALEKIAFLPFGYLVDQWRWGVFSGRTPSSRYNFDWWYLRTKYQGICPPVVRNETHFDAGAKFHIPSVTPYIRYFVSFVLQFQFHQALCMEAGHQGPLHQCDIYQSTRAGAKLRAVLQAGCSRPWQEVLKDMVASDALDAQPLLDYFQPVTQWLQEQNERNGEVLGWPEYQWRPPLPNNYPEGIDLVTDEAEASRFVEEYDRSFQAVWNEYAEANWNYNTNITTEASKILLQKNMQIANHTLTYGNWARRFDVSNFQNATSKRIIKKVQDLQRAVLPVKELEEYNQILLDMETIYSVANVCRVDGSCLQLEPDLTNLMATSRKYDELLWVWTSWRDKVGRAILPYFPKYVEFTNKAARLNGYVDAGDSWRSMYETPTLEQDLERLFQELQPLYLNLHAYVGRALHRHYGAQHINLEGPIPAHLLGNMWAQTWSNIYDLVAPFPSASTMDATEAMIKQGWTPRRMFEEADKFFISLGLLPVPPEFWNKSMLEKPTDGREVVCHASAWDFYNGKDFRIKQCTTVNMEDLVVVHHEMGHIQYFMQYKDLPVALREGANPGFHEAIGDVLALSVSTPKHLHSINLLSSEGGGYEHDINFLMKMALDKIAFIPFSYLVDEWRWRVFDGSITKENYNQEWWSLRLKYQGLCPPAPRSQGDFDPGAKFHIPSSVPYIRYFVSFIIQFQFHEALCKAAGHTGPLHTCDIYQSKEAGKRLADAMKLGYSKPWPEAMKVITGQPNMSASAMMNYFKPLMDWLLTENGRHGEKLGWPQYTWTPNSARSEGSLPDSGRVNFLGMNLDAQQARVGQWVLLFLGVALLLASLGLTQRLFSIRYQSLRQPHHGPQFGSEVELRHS
pIC50: −log10 of the molar value.

# Compound, Qualifier Sign, pIC50
data = [
    ("O=C(N[C@H](CSCc1ccccc1)C(=O)O)[C@H](CS)Cc1ccccc1", "<", 6.00),
    ("CC(C)[C@H](S)C(=O)NC1(C(=O)N[C@@H](CCc2ccccc2)C(=O)O)CCCC1", "=", 7.52),
    ("NCCCC[C@H](OP(=O)(O)CCCCc1ccc(F)cc1)C(=O)N1CCC[C@H]1C(=O)O", "=", 7.51),
    ("C#CCN(CC(=O)O)C(=O)C(C)CS (stereo not given)", "=", 6.57),
    ("O=C(NC(CCC(=O)N1c2ccccc2C[C@@H]1C(=O)O)C(=O)O)OCc1ccccc1 (stereo not given in full)", "=", 8.15),
    ("CCCC(CS)C(=O)N[C@H](CSCC)C(=O)O (stereo not given in full)", "=", 6.00),
    ("CCSC[C@@H](NC(=O)C(CS)Cc1ccccc1)C(=O)O (stereo not given in full)", "=", 7.35),
    ("C[C@H](NC(=O)C(CS)CCc1ccccc1)C(=O)N1CCC[C@@H]1C(=O)O (stereo not given in full)", "=", 6.54),
    ("CC(C)(C)SC[C@@H](NC(=O)[C@@H](CS)Cc1ccccc1)C(=O)O", "=", 6.77),
    ("O=C(N[C@H](CCC(=O)N1C[C@H]2CCCC[C@H]2C[C@H]1C(=O)O)C(=O)O)OCc1ccccc1", "=", 7.77),
    ("CC(C)C[C@H](NC(=O)[C@@H](CS)Cc1ccccc1)C(=O)O", "=", 7.43),
    ("CC(=O)SCC(C)C(=O)N(C1CC1)C(C)C(=O)O (stereo not given)", "=", 6.66),
    ("CC(C)[C@H](S)C(=O)NC1(C(=O)N[C@@H](Cc2ccccn2)C(=O)O)CCCC1", "=", 7.46),
    ("CC(C)[C@H](S)C(=O)NC(C)(C)C(=O)N[C@@H](Cc1ccc(O)cc1)C(=O)O", "=", 7.82),
    ("CC(C)[C@H](S)C(=O)NC1(C(=O)N[C@@H](Cc2cccnc2)C(=O)O)CCCC1", "=", 7.43),
    ("NCCCC[C@H](OP(=O)(O)CCCc1ccccc1)C(=O)N1CCC[C@H]1C(=O)O", "=", 6.72),
    ("CC(=O)SCC(C)C(=O)N(CC(=O)O)C[C@H]1CC2CC(C1C)C2(C)C (stereo not given in full)", "=", 6.85),
    ("NCCCCC(NC(=O)C1CCC1)C(=O)NC(Cc1ccccc1)C(=O)CCC(=O)N1CCCC1C(=O)O (stereo not given)", "=", 8.22),
    ("Cc1ccc(CSC[C@@H](NC(=O)[C@@H](CS)Cc2cccc3ccccc23)C(=O)O)cc1", "<", 6.00),
    ("CSCC[C@@H](NC(=O)[C@@H](CS)Cc1ccccc1)C(N)=O", "<", 6.00),
]
